tested on: Vero-E6 cells; assay: cells; type: cell-based; conditions: Chlorocebus sabaeus, Vero C1008, 24 h, read-out: PLD_Effect(%) VERO-E6
quantity: activation at 10 µM (%)
Express your answer in %, writing the number without its unit.

Enquiry: Requested field: activation at 10 µM. Item: `COc1cc2c(NC3CCN(C(C)C)CC3)nc(C3CCCCC3)nc2cc1OCCCN1CCCC1`
Return: 60.7

Enquiry: Recorded activation at 10 µM for c1ccc2c(CCNc3ccc(Nc4ccncc4)cc3)c[nH]c2c1 [JNJ 26854165 (Serdemetan)] , please?
Return: 74

====

test system: Vero-E6 cells; assay: cells; assay type: cell-based; conditions: Chlorocebus sabaeus, Vero C1008, read-out: PLD EC50 µM
Structures can show the parent of a compound that is named as a salt.
Field: label. Allowed values: Met (EC50 < 2 µM) or Not met (EC50 >= 2 µM).

Look over these answered cases.
compound | discreteLabel
CN1CCC(Nc2ncc3ncnc(Nc4ccc(F)c(Cl)c4)c3n2)CC1 [BiBX-1382, reference compound] | Met
CCCCN(CCCC)CCC(O)c1cc2c(Cl)cc(Cl)cc2c2cc(C(F)(F)F)ccc12 (stereo not shown) [halofantrine HCl, reference compound] | Met
Cc1cccc(C)c1NC(=O)CN1CCN(CCCC(c2ccc(F)cc2)c2ccc(F)cc2)CC1 [lidoflazine, reference compound] | Not met
O=C(c1ccc(F)c(F)c1Nc1ccc(I)cc1F)N1CC(O)([C@@H]2CCCCN2)C1 [Cobimetinib, reference compound] | Met
CCN(CC)CCCC(C)Nc1c2ccc(Cl)cc2nc2ccc(OC)cc12 (stereo not shown) [quinacrine hydrochloride, reference compound] | Met

Enquiry: Decide: EC50 of Cc1ccc(C(=O)N(CCCN)[C@@H](c2oc3cc(Cl)ccc3c(=O)c2Cc2ccccc2)C(C)C)cc1 [SB-743921, reference compound] strictly below 2 µM?
Return: Not met

====

Listing: EC50 of selected molecules
system: Vero-E6 cells; assay: cells; assay type: cell-based; conditions: Chlorocebus sabaeus, Vero C1008, read-out: PLD EC50 µM
Counter-ions that a name gives are not always drawn.
Form entry: value (µM) — number only.

As a guide, the following entries are already answered.
molecule | EC50 (µM)
O=C(CCCN1CCC2(CC1)C(=O)N(Cc1cccc(F)c1)CN2c1ccccc1)c1ccc(F)cc1 [3'-fluorobenzylspiperone, reference compound] | 10.3
COC(=O)C1=C(C)NC(C)=C(C(=O)OCCCN2CCC(c3ccccc3)(c3ccccc3)CC2)[C@@H]1c1cccc([N+](=O)[O-])c1 [Dexniguldipine, reference compound] | 2.48

Enquiry: So what's the measured EC50 for this one? OC(c1cc(C(F)(F)F)nc2c(C(F)(F)F)cccc12)C1CCCCN1 (stereo not drawn) [mefloquine hydrochloride, reference compound]
Return: 1.48

====

system: Vero-E6 cells; assay: cells; assay type: cell-based; conditions: Chlorocebus sabaeus, Vero C1008, 24 h, read-out: PLD_Effect(%) VERO-E6
Counter-ions that a name gives are not always drawn.
Each entry below carries its reported activation at 10 µM.

molecule | activation at 10 µM
C[C@@H](NCCCc1cccc(C(F)(F)F)c1)c1cccc2ccccc12 [AMG-073 HCl, cinacalcet hydrochloride, reference compound] | 61.8%

Enquiry: Reported activation at 10 µM, molecule COCC(=O)O[C@]1(CCN(C)CCCc2nc3ccccc3[nH]2)CCc2cc(F)ccc2[C@@H]1C(C)C [mibefradil, reference compound] : ____
Return: 88.2%

Enquiry: Returns the measured activation at 10 µM for the input molecule. Input: `CCSc1ccc2c(c1)N(CCCN1CCN(C)CC1)c1ccccc1S2`
Return: 59.1%

Enquiry: Could you tell me which activation at 10 µM is on file for CCN(CCCc1ccccc1)CCCc1ccccc1 [ALVERINE CITRATE] ?
Return: 58.9%

Enquiry: Name the reported activation at 10 µM value associated with the molecule `Cc1nc2ccc(Oc3ccc(F)cc3)cc2c(=O)n1C[C@H]1CCCN(C(C)C)C1`
Return: 56.3%

Enquiry: I have this molecule here, `Cc1[nH]c2ccc(Cl)cc2c1C1=CCNCC1` , and I need its recorded activation at 10 µM.
Return: 96.8%

Enquiry: Quick check: activation at 10 µM of C=CCN(C)CCCCCCOc1ccc(C(=O)c2ccc(Br)cc2)c(F)c1 [Ro 48-8071 (fumarate)] ?
Return: 92.9%

Enquiry: Returns the measured activation at 10 µM for the input molecule. Input: N[C@H]1CC[C@H](N[C@@H]2C[C@H]2c2ccccc2)CC1 [ORY-1001 (RG-6016) 2HCl]
Return: 65.7%

Enquiry: Item under review: Cc1cccc(C)c1NC(=O)CN1CCN(CCCC(c2ccc(F)cc2)c2ccc(F)cc2)CC1 [lidoflazine, reference compound] . Reported activation at 10 µM?
Return: 52.6%

Enquiry: So what's the measured activation at 10 µM for this one? `O=C(Nc1ncc(SCCN2CCCC2)s1)[C@]1(c2ccc(S(=O)(=O)C3CC3)cc2)C[C@H]1C1CCCCC1`
Return: 55.8%

Enquiry: Would you mind telling me what activation at 10 µM value was observed for CN1CC2c3ccccc3Oc3ccc(Cl)cc3C2C1 (centres unmarked) [asenapine maleate] ?
Return: 65.2%

Enquiry: Can you share its activation at 10 µM? I mean this molecule: `COc1cccc(CCc2ccccc2OCC[C@@H]2C[C@@H](O)CN2C)c1`
Return: 90.4%

====

tested on: Vero-E6 cells; experiment: cells; format: cell-based; conditions: Chlorocebus sabaeus, Vero C1008, 24 h, read-out: PLD_Effect(%) VERO-E6
Counter-ions that a name gives are not always drawn.
Classification scheme (activation at 10 µM): zone 1 = under 60%, zone 2 = from 60% up to 70%, zone 3 = 70% and over

molecule | discreteLabel
CN(C(=O)Cc1ccc(Cl)c(Cl)c1)[C@H](CN1CCCC1)c1ccccc1 [ICI-199441] | zone 1
CC(=O)c1ccc2c(c1)N(CCCN1CCN(CCO)CC1)c1ccccc1S2 [ACETOPHENAZINE MALEATE] | zone 3
CCCCCCCCC(=O)N[C@H](CN1CCCC1)[C@H](O)c1ccc2c(c1)OCCO2 [Genz-123346 (free base)] | zone 2

Enquiry: Which bin, given its activation at 10 µM, does Clc1ccc2c(c1)N=C(N1CCNCC1)c1ccccc1N2 [desmethylclozapine] occupy?
Return: zone 3

Enquiry: Bin? O=C(CN1C2=NCCN2c2ccccc21)c1ccc(-c2ccccc2)cc1 [CCT-031374]
Return: zone 1

Enquiry: Dear colleague, I would appreciate it if you could identify the bin for C[C@@H]1CN(CCCn2c3ccccc3c3ccccc32)C[C@H](C)N1 [rimcazole] and reply at your convenience.
Return: zone 3

Enquiry: Please indicate the class for O=C(NCCN1CCC2(CC1)C(=O)NCN2c1cccc(F)c1)c1ccc2ccccc2c1 [VU-0364739] based on its activation at 10 µM.
Return: zone 1

Enquiry: Pick a category. Item: CCC(C)CNCC(=O)N1CCc2sccc2C1COc1cccc(C)c1 (centres unmarked) [RU-SKI-43]
Return: zone 1

====

system: Vero-E6 cells; assay: cells; format: cell-based; conditions: Chlorocebus sabaeus, Vero C1008, 24 h, read-out: PLD_Effect(%) VERO-E6
Counter-ions that a name gives are not always drawn.
Below is a list of entries, each paired with its recorded activation at 10 µM value.
Express your answer in %, writing the number without its unit.

Example molecules with recorded activation at 10 µM:
molecule | activation at 10 µM [%]
C[C@@H](O[C@H]1OCCN(Cc2nn[nH]c2CN(C)C)[C@H]1c1ccc(F)cc1)c1cc(C(F)(F)F)cc(C(F)(F)F)c1 | 71.2
O=C(NCCN1CCC2(CC1)C(=O)NCN2c1cccc(F)c1)c1ccc(F)c(F)c1 | 60.1
CC(COc1ccccc1Cc1ccccc1)N1CCCCC1 (stereo not drawn) [Benproperine Phosphate] | 72

Enquiry: Requested field: activation at 10 µM. Item: `O=S(=O)(NCCNC/C=C/c1ccc(Br)cc1)c1cccc2cnccc12`
Return: 60.8

Enquiry: Given CCCCN(CCCC)CCC(O)c1cc2c(Cl)cc(Cl)cc2c2cc(C(F)(F)F)ccc12 (stereo not drawn) [Halofantrine?HCl] , state its recorded activation at 10 µM.
Return: 68.8

Enquiry: I am curious: what activation at 10 µM value has been reported for CN1CCCN(C(c2ccccc2)c2ccc(Cl)cc2)CC1 (stereo not drawn) [Homochlorcyclizine?2HCl] ?
Return: 82.5

Enquiry: Which activation at 10 µM reading was recorded for the molecule `CCn1c2ccccc2c2cc(CNC)ccc21` ?
Return: 73.3

====

system: Vero-E6 cells; assay: cells; format: cell-based; conditions: Chlorocebus sabaeus, Vero C1008, 24 h, read-out: PLD_Effect(%) VERO-E6
Structures can show the parent of a compound that is named as a salt.
Output true (1) for activation at 10 µM not less than 60%; output false (0) otherwise.

Sample answers from the record:
compound | discreteLabel
Cn1ncc(Cl)c1-c1cc(C(=O)N[C@H](CN)Cc2cccc(F)c2)sc1Cl | true (1)
Clc1ccc(C(OCCN2CCCCC2)c2ccccc2)cc1 (centres unmarked) [CLOPERASTINE HYDROCHLORIDE] | true (1)
CN(C)CCCOc1nn(Cc2ccccc2)c2ccccc12 [BENZYDAMINE HYDROCHLORIDE] | false (0)

Now consider a different compound.
Enquiry: Could you tell me if the measured activation at 10 µM of CCN(CC)CCOC(=O)C(c1ccccc1)C1CCCCC1 (centres unmarked) [DROFENINE HYDROCHLORIDE] reaches 60% or more?
Return: false (0)

Data credit: paper PMC13083723
